# Test system: M14
# protocol text: NCI tumour cell line growth inhibition, 48 h
The source made the active and inactive calls. Cut-off read from the data, not from the text of the source: active = GI50 up to about 1.1 µM and inactive = higher.
reported property: GI50

- CCN(CC)CCOc1ccc(/C=C(\C#N)c2ccc(OCCN(CC)CC)cc2)cc1: 7.64 µM (inactive)
- CN(C)c1ccc(/C=c2/c3ccccc3n3nc4ccccc4c23)cc1: 21.7 µM (inactive)
- CNC(=O)NC(CCCCNC(=O)OCc1ccccc1)C(=O)OCc1ccccc1 (configuration not stated): 19.5 µM (inactive)
- O=C(Nc1ccc(Cl)cc1)c1cccc([N+](=O)[O-])c1O: 3.63 µM (inactive)
- C/C(Cl)=N/OC(=O)Nc1ccc(S(N)(=O)=O)c(C)c1: 9.14 µM (inactive)
- CCN(CC)C(=S)N/N=C/c1cc([N+](=O)[O-])ccc1O: 4.17 µM (inactive)
- N#Cc1ccc(/C=N\N2C(=O)c3ccccc3C2=O)cc1: > 100 µM (inactive)
- O=C(/C=C/c1ccc(O)c(O)c1)O[C@H]1CCCC[C@@H]1OC(=O)/C=C/c1ccc(O)c(O)c1: 15.9 µM (inactive)
- CC(=O)OC1c2ccccc2CCCCCCC12OCCO2 (configuration not stated): 86.5 µM (inactive)
- Br[C@@H]1[C@H]2c3nc4ccccc4nc3[C@@H]1C[C@H]2Br: > 100 µM (inactive)
- CCC(C)[C@H](NC(=O)[C@H](Cc1ccccc1)NC(=O)N(CC)c1ccccc1)C(=O)N[C@@H](CC(C)C)C(=O)OC (some centres not stated): 37.6 µM (inactive)
- O=C(Nc1ccc(Cl)c(Cl)c1)OCCN1c2ccccc2Sc2ccccc21: > 10 µM (inactive)
- CC(C)(C)[Si](C)(C)OCCOCn1cc(F)c(=O)[nH]c1=O: > 100 µM (inactive)
- N/C(=N\c1ccc(Cl)cc1)NS(=O)(=O)c1c(C(F)(F)F)cccc1C(F)(F)F: 26.3 µM (inactive)
- C/C=C1\CN2CCC34c5ccccc5N(C)C35OCC4(C(=O)OC)C1CC25 (configuration not stated): 21.4 µM (inactive)
- C=CC(=O)Nc1ccc(NC(=O)C=C)c2c1C(=O)c1ccccc1C2=O: 29.6 µM (inactive)
- C=CCOCCCC(=O)C(=[N+]=[N-])C(=O)OC: > 100 µM (inactive)
- O=C(Cc1csc(N/N=C2\C(=O)Nc3ccccc32)n1)Nc1ccccc1: 38.3 µM (inactive)
- O=c1[nH]cnc2c1nnn2C1C=C(CO)C(O)C1O (configuration not stated): > 100 µM (inactive)
- COC1C=C(Nc2cccc(Cl)c2)C(=O)C1 (configuration not stated): > 100 µM (inactive)
- Cc1[nH]c(=O)nc(S)c1C(=O)NC1C2CCCCC2NC2CCCCC21 (configuration not stated): 14.2 µM (inactive)
- CCOC(OC(C)=O)[C@@H]1C=C[C@H](C)N(c2ccc([N+](=O)[O-])cc2)O1 (some centres not stated): 3.06 µM (inactive)
- CCCCCc1nnc(NS(=O)(=O)c2ccc(NC(=O)OCC(C)C)cc2)s1: 41.9 µM (inactive)
- CCOc1cc(NC(C)=O)ccc1C(=O)NNC(=O)c1ccccc1OC(C)=O: 7.18 µM (inactive)
- CCCn1c(SCCSc2c3ccccc3c(-c3nc(F)nc(F)n3)n2CCC)c2ccccc2c1-c1nc(F)nc(F)n1: > 100 µM (inactive)
- O=C(Cn1c2ccc(Br)cc2c2nc3ccccc3nc21)N1CCOCC1: > 100 µM (inactive)
- COc1ccc2oc(=O)c(-c3csc(C)n3)cc2c1: 75.2 µM (inactive)
- CNC(=O)CN(CC(N)=O)C(=O)NC: > 100 µM (inactive)
- O=[N+]([O-])c1ccc(N2N=C(c3ccc4ccccc4c3O)CC2c2ccc(Cl)cc2)c([N+](=O)[O-])c1 (configuration not stated): 50.4 µM (inactive)
- COC(=O)/C(=N\NC(=S)NN)C(C(=O)OC)C(=O)C(=O)Nc1cccc(C(F)(F)F)c1 (configuration not stated): > 100 µM (inactive)
- CC1=C2C(=CO[C@H](C)[C@H]2C)C(O)=C(C(=O)O)C1=O: 23 µM (inactive)
- CC(=O)O[C@H]1CCC2[C@@H]3CCC4=C(O)c5nocc5C[C@]4(C)C3CC[C@@]21C (some centres not stated): > 100 µM (inactive)
- Cn1c(=O)[nH]c2[nH]c3ccccc3c2c1=O: > 100 µM (inactive)
- CCOC(=O)N1CCN(Cc2cc(=O)n3ccc(C)cc3n2)CC1: > 100 µM (inactive)
- Cc1oc2c(cc(O)c3cc(O)ccc32)c2cccc1-2: > 100 µM (inactive)
- CCOC(=O)c1cccc(/N=N/Nc2cccc(C(=O)OCC)c2)c1: > 100 µM (inactive)
- CC(C)(C)OC/C=C1\C(=O)O[C@H]2C[C@@H](O[Si](C)(C)C(C)(C)C)C[C@@H]12: 61.8 µM (inactive)
- Cc1cc(NS(=O)(=O)c2ccc(Nc3c4ccccc4nc4c(C(=O)N5CCN(CCO)CC5)cccc34)cc2)no1: > 100 µM (inactive)
- COC(=O)[C@H](C)NC(=O)[C@H](CSC)N1C(=O)N[C@@H](C(C)C)C1=O: > 100 µM (inactive)
- C#CCNC(Cc1c[nH]cn1)C(=O)O (configuration not stated): > 100 µM (inactive)
- CSC1CC2C(CC1(C)SC)C2(C)C (configuration not stated): 92 µM (inactive)
- Cc1cc(N(CCC#N)CCC#N)ccc1/C=N/NC(=O)c1ccccc1: 40.6 µM (inactive)
